tested on: HT1080; test: relative viability vs DMSO control (72 h) (fraction); higher = more viable cells; settings: 0.04115 µM
readout: relative viability
Would you mind answering with just the numeric figure?

Guide cases for relative viability, answers given:
Query: I'm curious: which relative viability was measured for CCC(=O)N1CC[C@H](Nc2ncnc3c2CN(c2cnc(OC)c(C(F)(F)F)c2)CC3)C1 tested on HT1080?
Reply: 1.04

Query: I'm curious: which relative viability was measured for COc1cc(CCc2cc(NC(=O)c3ccc(N4CC(C)NC(C)C4)cc3)n[nH]2)cc(OC)c1 (centres undefined) tested on HT1080?
Reply: 1.01

Query: I'm curious: which relative viability was measured for CC(C)(O)CNc1nc(Nc2ccnc(C(F)(F)F)c2)nc(-c2cccc(C(F)(F)F)n2)n1 tested on HT1080?
Reply: 1.06

Shift focus to the following entry.
Query: I'm curious: which relative viability was measured for O=C1NC(=O)[C@@H](c2cn3c4c(cccc24)CCC3)[C@@H]1c1c[nH]c2ccccc12 [Tivantinib] tested on HT1080?
Reply: 1.04
